# target-system: human IgG4 antibody (#I4639; Sigma-Aldrich) (human)
# assay: ELISA
OD reference
Number only, no unit.

These solved cases illustrate the format of a correct answer.
IN: Read off the recorded OD for IgA R3-1 (scFv, not shown: small tags and cut ends) scFv: QSVKESGGRLVTPGTPLTLTCTVSGIDLSSNAMSWVRQAPGEGLEWIGTISTVGKTYFASWAKGRFTISKTSTTVDLRITSPTTEDTATYFCATRYDSYGYAYNYWFGTLWGPGTLVTVTSGGGGSGGGGSGGGGSELDLTQTPPSVSGAVGGTVTIKCQASENINSELAWYQQKPGQRPKLLIYDASKLASGVPSRFSGSGSGTEYTLTISGMQCDDAATYYCQSTYYDGNYVYAFGGGTEVDVTRS
OUT: 3.07

IN: Determine its reported OD: R3-75 (scFv, not shown: small tags and cut ends) scFv: QSVKESGGRLVTPGTPLTLTCTVSGIDLSSNAMSWVRQAPGEGLEWIGTISTVGKTYFASWAKGRFTISKTSTTVDLRITSPTTEDTATYFCATRYDSYGYAYNYWFGTLWGPGTLVTVTSGGGGSGGGGSGGGGSELDLTQTPPSVSGAVGGTVTIKCQASENINSELAWYQQKPGQRPKLLIYDASKLASGVPSRFSGSGSGTEYTLTISGMQCDDAATYYCQSTYYDGNYVYAFGGGTEVDVTRS
OUT: 3.11

IN: Note down OD recorded for R3-26 (scFv, not shown: small tags and cut ends) scFv: QEQLVESGGGLVKPGGTLTLTCTVSGIDLSSYAMSWVRQVPGKGLEWIGIIGSGGGTAYANWAKGRFTISKTSSTTVDLKMTSLTTEDTATYFCATDYGIYGYAYGHLWGPGTLVTVTSGGGGSGGGGSGGGGSELVMTQTASPVSAAVGGTVTIKCQASQSISTALAWYQQRPGQPPKLLIYDASTLASGVSSRFKGSGSGTEFTLTISDLECADAATYYCQTYFGSDTDNAFGEGTEVEITGS
OUT: 3.16

IN: Please list OD recorded for the binder R3-23 (scFv, not shown: small tags and cut ends) scFv: QSVKESEGRLVTPGTPLTLTCTVSGFSLSRYAVSWVRQAPGKGLEWIGIIGSGGSTSYATWARGRFTISKTSTTVDLKITSPTTEDTVTYFCGSYYDSHGYAYVSLWGPGTLVTVTSGGGGSGGGGSGGGGSELVLTQTPSPVSGAVGGTVTINCQASQSISTALAWYQQKPGQPPKLLIYSASTLASGVSSRFKGSGSGTGFTLTISDLECADAATYYCQSYYGSSSDNAFGGGTEVVIKRS
OUT: 3.06

---
IN: Given IgA R3-18 (scFv, not shown: small tags and cut ends) scFv: QSLEESGGRLVTPGTPLTLTCTVSGIDLSSNAMTWVRQAPGEGLEWIGTISTGGSTYFASWAKGRFTISKTSTTVDLKITSPTTEDTATYFCATRYDSYGYAYNYWFGTLWGPGTLVTVTSGGGGSGGGGSGGGGSELVMTQTAASVSEPVGGTVTIKCQASQNINNELAWYQQKPGQRPKLLIYDASKLASGVPSRFSGSGSGTEFTLTISGMQCDDAATYYCQSTYYDGNYVYAFGGGTEVDVKGS , respond with its OD.
OUT: 3.08

IN: Answer with the recorded OD of R3-8 (scFv, not shown: small tags and cut ends) scFv: QSLEESGGRLVTPGTPLTLTCTVSGIDLSSNAMTWVRQAPGEGLEWIGTISTGGSTYFASWAKGRFTISKTSTTVDLKITSPTTEDTATYFCATRYDSYGYAYNYWFGTLWGPGTLVTVTSGGGGSGGGGSGGGGSELVMTQTAASVSEPVGGTVTINCQASQSISDELAWYQQKPGQRPKLLIYDASDLASGVPSRFSGSGSGTEFTLTISGVQCDDAATYYCQSAYYDGRYVYAFGGGTEVEVTGS only.
OUT: 3.09

IN: Give the measured OD for R3-58 (scFv, not shown: small tags and cut ends) scFv: QQQLMESGGRLVTPGGSLTLTCTVSGIDLNSYAMGWVRQAPGKGLEYIGIIRNSGNTYYASWAKGRFTISKTSSTTVDLKMTSLTTEDTATYFCARYSGDNGGALNLWGPGTLVTVTSGGGGSGGGGSGGGGSELVMTQTAASVSGPVGGTVTIKCQASEFIRNYLAWYQQKPGQPPKLLIYTTSNLASGVPSRFSGSGSGTEYTLTISDLECADAATYYCQNYYDISTYGNAFGGGTEVVVIKGS
OUT: 3.17

The values you see were collected from patent US20180327803A1.
